# Study target: SF-1 (Homo sapiens, UniProt Q13285)
# Construct: NCI-H295R SF-1-HiBiT cells with HiBiT tag knocked in at the endogenous SF1 locus; host or cells: NCI-H295R SF-1-HiBiT (knock-in at endogenous locus)
# Assay explanation: SF1 degradation induction in NCI-H295R SF-1-HiBiT cells (HiBiT DC50)
# Format: cell-based
# Condition label: 24 hr, concentration that induces 50% degradation of SF-1
Experimental readout: DC50 (nM)

# Compound, DC50, nM
data = [
    ("COc1ccc([C@]2(CCN(Cc3ccc(C4=CC[C@H](C(=O)N5CCC(Nc6ccc7c(c6)n(C)c(=O)n7C6CCC(=O)NC6=O)CC5)CC4)c(F)c3)CC(C)(C)C(F)(F)F)CCOC(C)(C)C2)cc1 (some centres unmarked)", 2.2),
    ("COc1ccc([C@]2(CCN(Cc3ccc(C4=CC[C@H](C(=O)N5CCC(Nc6ccc7c8c6OCCn8c(=O)n7C6CCC(=O)NC6=O)CC5)CC4)c(F)c3)CC(C)(C)C(F)(F)F)CCOC(C)(C)C2)cc1 (some centres unmarked)", 2.2),
]

[P] COc1ccc([C@]2(CCN(Cc3ccc(C4=CCC(C(=O)N5CCN(Cc6ccc7c(c6)n(C)c(=O)n7C6CCC(=O)NC6=O)CC5)CC4)c(F)c3F)CC(C)(C)C(F)(F)F)CCOC(C)(C)C2)cc1 (some centres unmarked)
[Q] COc1ccc([C@]2(CCN(Cc3ccc(C4=CC[C@@H](C(=O)N5CCC(Nc6ccc7c8c6OCCn8c(=O)n7C6CCC(=O)NC6=O)CC5)CC4)c(F)c3)CC(C)(C)C(F)(F)F)CCOC(C)(C)C2)cc1 (some centres unmarked)
Task: Param metric = DC50; output whichever of P , Q has the minimum value. Which one? Tell me its label.
Result: Q
(Q: 2.3 nM, P: 7.4 nM)

====

# Study target: SF-1 (Homo sapiens, UniProt Q13285)
# Construct: NCI-H295R SF-1-HiBiT cells with HiBiT tag knocked in at the endogenous SF1 locus; host or cells: NCI-H295R SF-1-HiBiT (knock-in at endogenous locus)
# Assay explanation: SF1 degradation induction in NCI-H295R SF-1-HiBiT cells (HiBiT DC50)
# Type: cell-based
# Condition label: 24 hr, concentration that induces 50% degradation of SF-1
Experimental readout: DC50 (nM)

Solved cases below.
# Compound, Experimental readout, Recorded result
records = [
    ("COc1ccc([C@]2(CCN(Cc3ccc(C4=CCC(CN5CCN(Cc6ccc7c(c6)n(C)c(=O)n7C6CCC(=O)NC6=O)CC5=O)CC4)cc3)CC(C)(C)C(F)(F)F)CCOC(C)(C)C2)cc1 (stereo partly shown) [AX3]", "DC50", 7.1),
    ("COc1ccc([C@]2(CCN(Cc3ccc(OC4CC5(CCN(CC(=O)N6CCc7ccc8c(c7C6)n(C)c(=O)n8C6CCC(=O)NC6=O)CC5)C4)cc3)CC(C)(C)C(F)(F)F)CCOC(C)(C)C2)cc1 (stereo partly shown) [Example AK10]", "DC50", 4.9),
    ("COc1ccc([C@]2(CCN(Cc3ccc(C4=CC[C@H](C(=O)N5CCN(Cc6cc(F)c7c(c6)n(C)c(=O)n7C6CCC(=O)NC6=O)CC5)CC4)cc3)CC(C)(C)C(F)(F)F)CCOC(C)(C)C2)cc1 (stereo partly shown) [BP6]", "DC50", 12),
    ("COc1ccc([C@]2(CCN(Cc3ccc(C4=CCC(CN5CCN(C(=O)c6cc7c(cn6)n(C6CCC(=O)NC6=O)c(=O)n7C)CC5)CC4)cc3)CC(C)(C)C(F)(F)F)CCOC(C)(C)C2)cc1 (stereo partly shown) [BJ6]", "DC50", 17),
    ("COc1ccc([C@]2(CCN(Cc3ccc(C4=CCC(CN5CCN(C(=O)c6cccc7c6n(C)c(=O)n7C6CCC(=O)NC6=O)CC5)CC4)cc3)CC(C)(C)C(F)(F)F)CCOC(C)(C)C2)cc1 (stereo partly shown) [Example AH4]", "DC50", 5.7),
]

[1] COc1ccc([C@]2(CCN(Cc3ccc(C4=CCC(C(=O)N5CCN(Cc6ccc7c(c6)n(C)c(=O)n7C6CCC(=O)NC6=O)CC5)CC4)cc3F)CC(C)(C)C(F)(F)F)CCOC(C)(C)C2)cc1 (stereo partly shown) [AT3]
[2] COc1ccc([C@]2(CCN(Cc3ccc(C4=CC[C@H](CN5CCN(C(=O)c6ccc7c(c6)n(C)c(=O)n7[C@H]6CCC(=O)NC6=O)CC5)CC4)cc3)CC(C)(C)C(F)(F)F)CCOC(C)(C)C2)cc1 [AP6]
Task: I'd appreciate it if you could identify which of 1 and 2 has the greater DC50. Your answer should be the label of the entry you select.
Result: 1

====

# Study target: SF-1 (Homo sapiens)
# Construct: NCI-H295R SF-1-HiBiT cells with HiBiT tag knocked in at the endogenous SF1 locus; host or cells: NCI-H295R SF-1-HiBiT (knock-in at endogenous locus)
# Assay explanation: SF1 degradation induction in NCI-H295R SF-1-HiBiT cells (HiBiT DC50)
# Format: cell-based
# Condition label: 24 hr, concentration that induces 50% degradation of SF-1
Experimental readout: DC50 (µM)

# Molecule, DC50 [µM]
rows = [
    ("COc1ccc([C@]2(CCN(Cc3ccc(OC4CCN(CC(=O)Nc5cccc6c5n(C)c(=O)n6C5CCC(=O)NC5=O)CC4)cc3)CC(C)(C)C(F)(F)F)CCOC(C)(C)C2)cc1 (stereo partly drawn) [Example Z8]", 0.01),
]

[a] COc1ccc([C@]2(CCN(CC(C)(C)C(F)(F)F)C[C@H]3CC[C@H](c4ccc(NC(=O)N5CCC(Nc6ccc7c(c6)n(C)c(=O)n7C6CCC(=O)NC6=O)CC5)cc4)CC3)CCOC(C)(C)C2)cc1 (stereo partly drawn) [CA1]
[b] COc1ccc([C@]2(CCN(Cc3ccc(C4=CC[C@H](C(=O)N5CCC(Nc6ccc7c(c6)C(=O)N(C6CCC(=O)NC6=O)C7)CC5)CC4)cc3)CC(C)(C)C(F)(F)F)CCOC(C)(C)C2)cc1 (stereo partly drawn) [BS3]
Task: Please indicate which item has the smaller measured DC50: a versus b Answer with the label corresponding to your selection.
Result: a
(a: 0.0055 µM, b: 0.014 µM)

====

# Study target: SF-1 (Homo sapiens)
# Construct: NCI-H295R SF-1-HiBiT cells with HiBiT tag knocked in at the endogenous SF1 locus; host or cells: NCI-H295R SF-1-HiBiT (knock-in at endogenous locus)
# Assay explanation: SF1 degradation induction in NCI-H295R SF-1-HiBiT cells (HiBiT DC50)
# Format: cell-based
# Condition label: 24 hr, concentration that induces 50% degradation of SF-1
Measured DC50 of individual entries
Number only, in nM; omit the unit.

# Compound, DC50, nM
data = [
    ("COc1ccc([C@]2(CCN(Cc3ccc4c(cnn4C4CC5(CCN(CC(=O)Nc6ccc7c(c6)n(C)c(=O)n7C6CCC(=O)NC6=O)CC5)C4)c3)CC(C)(C)C(F)(F)F)CCOC(C)(C)C2)cc1 (some centres unmarked)", 4.9),
]

Task: I'm curious: which DC50 was measured for COc1ccc([C@]2(CCN(Cc3ccc(C4=CC[C@H](C(=O)N5CCC(Nc6ccc7c8c6CCCn8c(=O)n7C6CCC(=O)NC6=O)CC5)CC4)c(F)c3)CC(C)(C)C(F)(F)F)CCOC(C)(C)C2)cc1 (single isomer, unassigned) [CH1] tested on SF-1 (Homo sapiens)?
Result: 2.8

====

# Study target: SF-1 (Homo sapiens, UniProt Q13285)
# Construct: NCI-H295R SF-1-HiBiT cells with HiBiT tag knocked in at the endogenous SF1 locus; host or cells: NCI-H295R SF-1-HiBiT (knock-in at endogenous locus)
# Assay explanation: SF1 degradation induction in NCI-H295R SF-1-HiBiT cells (HiBiT DC50)
# Type: cell-based
# Condition label: 24 hr, concentration that induces 50% degradation of SF-1
Experimental readout: DC50 (nM)

[1] COc1ccc([C@]2(CCN(Cc3ccc(C4=CC[C@@H](CN5CCN(C(=O)c6ccc7c8c6NCCn8c(=O)n7C6CCC(=O)NC6=O)CC5)CC4)cc3)CC(C)(C)C(F)(F)F)CCOC(C)(C)C2)cc1 (some centres unmarked) [BZ7]
[2] COc1ccc([C@]2(CCN(Cc3ccc(C4=CC[C@H](CN5CCN(C(=O)c6ccc7c8c6CCCn8c(=O)n7[C@H]6CCC(=O)NC6=O)CC5)CC4)cc3)CC(C)(C)C(F)(F)F)CCOC(C)(C)C2)cc1 [BF6]
[3] COc1ccc([C@]2(CCN(Cc3ccc(C4=CC[C@H](C(=O)N5CCC(Nc6cccc7c6n(C)c(=O)n7C6CCC(=O)NC6=O)CC5)CC4)c(F)c3)CC(C)(C)C(F)(F)F)CCOC(C)(C)C2)cc1 (some centres unmarked) [CD2]
Task: Hi! Can you put these in order of DC50, lowest number first? Provide your answer as the labels ordered per the instruction.
Result: 1, 3, 2
